B1: POU domain, class 3, transcription factor 1, residues 247 to 324; numbered along this chain, Q03052 (parent)
chain: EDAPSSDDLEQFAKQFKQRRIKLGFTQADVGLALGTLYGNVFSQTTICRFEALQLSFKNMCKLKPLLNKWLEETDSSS

- Variants of: B1
- EXPERIMENTAL_PROTOCOL: abundance fitness (aPCA) (normalised: wild type 0, dead -1); higher = more abundant; growth selection in yeast, the domain comes from the species named
- CONDITION_LABEL: Homo sapiens
The following variants are listed with their measured abundance fitness values.
In your answer, state the number alone without any accompanying words.

>>> reported_measurement("T45D")
0.254
>>> reported_measurement("D75P")
0.178
>>> reported_measurement("D75H")
0.395
>>> reported_measurement("F57D")
-0.063
>>> reported_measurement("T46M")
0.069

Here's the next entry for you.
Ask | Give abundance fitness for I47M
Reply | -0.69
